Quick reference: IC50 of the listed items.
Test system: TNFα release from human peripheral blood mononuclear cells
Assay: TNFα screen: inhibition of LPS-stimulated TNFα release from human peripheral blood mononuclear cells (ELISA)
Assay type: cell-based
Details: human PBMC, LPS stimulation, 18 hours incubation, TNFα in supernatant by ELISA; read-out: TNF IC50

COMPOUND	IC50
CSCC(C)(C)c1cc(NC(=O)NCc2ccccc2Sc2ccc3nnc(-c4cc(Cl)ccc4O)n3c2)n(-c2cccc(CN(C)C)c2)n1 [Example 11]	4.9 nM
CSCC(C)(C)c1cc(NC(=O)NCc2ccccc2Sc2ccc3nnc(-c4cc(O)ccc4Cl)n3c2)n(-c2cccc(CN(C)C)c2)n1 [Example 2]	2.9 nM
CN(C)Cc1cccc(-n2nc(C(C)(C)C)cc2NC(=O)NCc2ccccc2Sc2ccc3nnc(-c4cc(Cl)ccc4O)n3c2)c1 [Example 3]	4 nM

[ask] Record request: IC50 value, item CC(C)(C)c1cc(NC(=O)NCc2ccccc2Sc2ccc3nnc(-c4cccc(OCCN5CCOCC5)c4)n3c2)n(-c2ccc(O)c(Cl)c2)n1 [Example 9]
[reply] 5.6 nM

[ask] And for CN(C)CCOc1cccc(-n2nc(C(C)(C)C)cc2NC(=O)NCc2ccccc2Sc2ccc3nnc(-c4cc(Cl)ccc4O)n3c2)c1 [Example 1] ?
[reply] 5.6 nM

----------
System: TNFα release from human peripheral blood mononuclear cells
Assay: TNFα screen: inhibition of LPS-stimulated TNFα release from human peripheral blood mononuclear cells (ELISA)
Assay type: cell-based
Conditions: human PBMC, LPS stimulation, 18 hours incubation, TNFα in supernatant by ELISA; read-out: TNF IC50
Description: Venous blood is collected from healthy volunteers and the mononuclear cells purified by centrifugation through Histopaque (Ficoll) cushions. TNFα production from these cells is stimulated by addition of lipopolysaccharide. After 18 hours incubation in the presence of LPS, the cell supernatant is removed and the concentration of TNFα in the supernatant determined by ELISA. Addition of the compounds of the invention reduces the amount of TNFα produced. […]
MEASURED PARAMETER: IC50 (nM)
Write down the numeric answer in nM and omit the unit.

The examples below pair each entry with its known result.
SMILES ENTRY	NUMERIC READOUT
CC(C)(C)c1cc(NC(=O)NCc2ccccc2Sc2ccc3nnc(-c4ccc(CN5CCOCC5)cc4)n3c2)n(-c2ccc(Cl)c(O)c2)n1	3
CC(C)(C)c1cc(NC(=O)NCc2ccccc2Sc2ccc3nnc(-c4cccc(OCCN5CCOCC5)c4)n3c2)n(-c2ccc(Cl)c(O)c2)n1	4.3
CN(C)Cc1cccc(-n2nc(C(C)(C)C)cc2NC(=O)NCc2ccccc2Sc2ccc3nnc(-c4cc(O)ccc4Cl)n3c2)c1	8.2

[ask] For the compound shown here, CC(C)(C)c1cc(NC(=O)NCc2ccccc2Sc2ccc3nnc(-c4cc(O)ccc4Cl)n3c2)n(-c2cccc(CN3CCOCC3)c2)n1 , give the reported IC50.
[reply] 1.8

[ask] CC(C)(C)c1cc(NC(=O)NCc2ccccc2Sc2ccc3nnc(-c4ccc(CN5CCOCC5)cc4)n3c2)n(-c2ccc(O)c(Cl)c2)n1 , same question.
[reply] 5.5

[ask] Likewise for CC(C)(C)c1cc(NC(=O)NCc2ccccc2Sc2ccc3nnc(-c4cc(Cl)ccc4O)n3c2)n(-c2cccc(CN3CCOCC3)c2)n1 ?
[reply] 2.5
